Values from PubChem BioAssay (Tox21)

Experiment: qHTS assay for identifying genotoxic compounds that show differential cytotoxicity against isogenic chicken DT40 cell lines with known DNA damage response pathways - Rad54/Ku70 mutant cell line (AID 743015); further: nearly all actives have a fitted effect of over 60% in size
Conditions: DT40 Rad54/Ku70 mutant viability, CellTiter-Glo, 40 h; series mostly up to 66.8 µM
Results filed as inconclusive are left out. Calls of active or inactive are those of the source. The call rests on the fitted dose curve; in most records, active means well fitted cell-killing curve with a large enough effect in the repeat runs; inconclusive means weak or mixed curves; inactive means no such curve, though single readings can be large or run the other way.
Field 'call' accepts 1 (yes) for active, 0 (no) for inactive

*Q* Would you mind telling me which call this test gave `CCc1ccc(C(=O)NN(C(=O)c2cc(C)cc(C)c2)C(C)(C)C)cc1` ?
*A* 1 (yes)

*Q* Would you mind telling me which call this test gave `C/C=C/C=O` ?
*A* 0 (no)

*Q* Would you mind telling me which call this test gave `O=C(Nc1ccccc1)Nc1ccnc(Cl)c1` ?
*A* 1 (yes)

Continue with the next compound.
*Q* Would you mind telling me which call this test gave `Nc1nc(N)nc(N)n1` ?
*A* 0 (no)

----------
Test: Human pregnane X receptor (PXR) small molecule agonists, qHTS cell viability counter screen (AID 1346977); further: nearly all actives have a fitted effect of over 50% in size
Details: PXR-Luc HepG2 viability, CellTiter-Fluor, 24 h; series mostly up to 92.4 µM
Results filed as inconclusive are left out. Activity calls are given as the source filed them. Calls follow the shape of the dose curve; as a rule, active = well fitted cell-killing curve with a large enough effect in the repeat runs; inconclusive = weak or mixed curves, or effect the other way; inactive = flat fitted curve, though single readings scatter.
Field 'call' accepts True = active, False = inactive

Answered examples (3):
*Q* Would you mind telling me which call this test gave CNP(=O)(OC)Oc1ccc(C(C)(C)C)cc1Cl (stereo not drawn) ?
*A* False

*Q* Would you mind telling me which call this test gave `O=C(NCc1cccnc1)Nc1ccc([N+](=O)[O-])cc1` ?
*A* False

*Q* Would you mind telling me which call this test gave `c1ccc(C2CC2)c(OCC2=NCCN2)c1` ?
*A* False

***
*Q* Would you mind telling me which call this test gave CC1Sc2c(C(=O)O)c(=O)c3cc(F)c(N4CCNCC4)cc3n21 (stereo not drawn) ?
*A* False

*Q* Would you mind telling me which call this test gave `Nc1nc(=S)[nH][nH]1` ?
*A* False

----------
Experiment: qHTS assay to identify small molecule agonists of the peroxisome proliferator-activated receptor delta (PPARd) signaling pathway - cell viability counter screen (AID 743211); further: nearly all actives have a fitted effect of over 55% in size
Conditions: PPARd-bla HEK293H viability, CellTiter-Glo luminescence, 17 h; series mostly up to 62.6 µM
Inconclusive results are not listed. The source made the active and inactive calls. The call rests on the fitted dose curve; in most records, active means well fitted cell-killing curve with a large enough effect in the repeat runs; inconclusive means weak or mixed curves; inactive means no such curve, though single readings can be large or run the other way.
Field 'call' accepts t (active), f (inactive)

*Q* Would you mind telling me which call this test gave `CCCN(CC1CC1)c1c([N+](=O)[O-])cc(C(F)(F)F)cc1[N+](=O)[O-]` ?
*A* f

***
*Q* Would you mind telling me which call this test gave `COCCOCCO` ?
*A* f

*Q* Would you mind telling me which call this test gave `COc1nn(CSP(=S)(OC)OC)c(=O)s1` ?
*A* f

*Q* Would you mind telling me which call this test gave `N#CCC#N` ?
*A* f

*Q* Would you mind telling me which call this test gave `CCOC(=O)COc1cc(-c2nn(C)c(OC(F)F)c2Cl)c(F)cc1Cl` ?
*A* f

*Q* Would you mind telling me which call this test gave Clc1ccc(C2(Cn3cncn3)CC(Br)CO2)c(Cl)c1 (stereo not drawn) ?
*A* f

*Q* Would you mind telling me which call this test gave O=C1C(Cl)C(CCl)CN1c1cccc(C(F)(F)F)c1 (stereo not drawn) ?
*A* f

*Q* Would you mind telling me which call this test gave `CCOC(=O)CBr` ?
*A* f
